test: Plasma drug levels after oral administration; assay type: in vivo; conditions: rat, plasma; 15 min after oral administration of 3 mg/kg, male Sprague-Dawley rats
assay-readout: concentration at 15 min (ng/mL)
I only need the number, in ng/mL, no unit after it.

Some solved cases for reference:
CCC(=O)NCC[C@@H]1CCc2ccc3c(c21)CCO3 [Ramelteon, reference compound] : 280
CC1Cc2c(N3CC[C@H](NC(=O)C4CC4)C3)ccc(F)c2O1 (stereo partly drawn) : 5.1

What measured concentration at 15 min goes with CC1Cc2c(cccc2N2CC[C@H](NC(=O)C3CC3)C2)O1 (stereo partly drawn) ?
17

Endpoint output: concentration at 15 min of COc1ccc2[nH]cc(CCNC(C)=O)c2c1 [Melatonin, reference compound] . Value?
255

For CC(=O)N[C@H]1CCN(c2ccc(F)c3c2CC(C)O3)C1 (stereo partly drawn) , what is its reported concentration at 15 min?
56.8

Reported concentration at 15 min, compound CCCC1Cc2c(cccc2N2CC[C@H](NC(=O)CC)C2)O1 (stereo partly drawn) : ____
59
